- MEASURED_TARGET: SIRT1 (Homo sapiens, UniProt Q96EB6)
- Sequence (Q96EB6 whole entry): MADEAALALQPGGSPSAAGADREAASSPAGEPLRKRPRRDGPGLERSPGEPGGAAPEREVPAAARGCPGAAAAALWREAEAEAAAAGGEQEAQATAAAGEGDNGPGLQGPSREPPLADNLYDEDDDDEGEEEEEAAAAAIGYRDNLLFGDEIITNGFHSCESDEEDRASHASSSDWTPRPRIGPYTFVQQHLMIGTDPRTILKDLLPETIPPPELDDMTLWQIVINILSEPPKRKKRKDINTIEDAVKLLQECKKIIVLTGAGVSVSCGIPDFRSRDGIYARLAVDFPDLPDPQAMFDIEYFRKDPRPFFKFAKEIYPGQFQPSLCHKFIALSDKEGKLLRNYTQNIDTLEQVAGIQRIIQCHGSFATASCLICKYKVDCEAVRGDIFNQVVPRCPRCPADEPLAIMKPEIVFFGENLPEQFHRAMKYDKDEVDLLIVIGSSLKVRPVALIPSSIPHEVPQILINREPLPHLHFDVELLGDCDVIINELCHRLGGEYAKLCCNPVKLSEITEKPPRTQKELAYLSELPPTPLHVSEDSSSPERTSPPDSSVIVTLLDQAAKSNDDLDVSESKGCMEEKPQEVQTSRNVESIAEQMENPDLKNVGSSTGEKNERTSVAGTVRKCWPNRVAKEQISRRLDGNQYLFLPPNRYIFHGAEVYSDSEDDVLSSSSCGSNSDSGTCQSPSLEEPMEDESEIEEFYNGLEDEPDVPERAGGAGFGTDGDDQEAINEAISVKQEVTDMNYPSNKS
- ASSAY_SUMMARY: Mass spectrometry based assay to identify modulators of SIRT1 activity (deacetylation of p53-based acetylated peptide)
- Type: biochemical
- CONDITION_NOTES: 10 nM SIRT1, 0.5 μM peptide substrate, 120 μM βNAD+, 25 minutes at 25° C.
PROPERTY_NAME: % Fold Act. (percent maximum fold activation)

Solved entries:
ITEM_SMILES: CCCn1c(-c2cccc(C(F)(F)F)c2)nc2c(NC(=O)c3cnccn3)cccc2c1=O
REPORTED_VALUE: A (Fold activation>200%)

ITEM_SMILES: Cn1c(-c2ccccn2)nc2c(C(=O)Nc3ccccn3)cccc2c1=O
REPORTED_VALUE: B (Fold Activation<200%)

ITEM_SMILES: CCn1c(-c2cccc(C(F)(F)F)c2)nc2c(C(=O)Nc3ccccn3)cccc2c1=O
REPORTED_VALUE: B (Fold Activation<200%)

ITEM_SMILES: O=C(Nc1nccs1)c1cccc2c(=O)cc(-c3cccc(C(F)F)c3)[nH]c12
REPORTED_VALUE: A (Fold activation>200%)

ITEM_SMILES: Cn1c(-c2ccc(CN3CCCC3)cc2)nc2c(C(=O)Nc3ccccn3)cccc2c1=O
REPORTED_VALUE: B (Fold Activation<200%)

The value of % Fold Act. (percent maximum fold activation) measured for the molecule "Cn1cnc(-c2nc3c(C(=O)Nc4ccccn4)cccc3c(=O)n2C)c1" turned out to be B (Fold Activation<200%)

Quick note, % Fold Act. (percent maximum fold activation) for "Cn1ccnc1-c1nc2c(C(=O)Nc3ccccn3)cccc2c(=O)n1C" landed at B (Fold Activation<200%)

Just so you know, measured % Fold Act. (percent maximum fold activation) for "COc1cc(OC)nc(C(=O)Nc2cccc3c(=O)cc(-c4cccc(C(F)(F)F)c4)[nH]c23)n1" came out at A (Fold activation>200%)

Short answer for "O=C(Nc1nccs1)c1cccc2c(=O)cc(-c3ccccc3C(F)F)[nH]c12" : % Fold Act. (percent maximum fold activation) was A (Fold activation>200%)

Reported % Fold Act. (percent maximum fold activation) of "O=C(Nc1cccnc1)c1cccc2c(=O)cc(-c3ccccc3Cl)[nH]c12" : A (Fold activation>200%)

Memo: "O=C(Nc1nccs1)c1cccc2c(=O)cc(-c3cccc(OC(F)F)c3)[nH]c12" , reported % Fold Act. (percent maximum fold activation): A (Fold activation>200%)

% Fold Act. (percent maximum fold activation) reported for this molecule "O=C(Nc1cccc2c(=O)cc(-c3cccc(C(F)(F)F)c3)[nH]c12)c1cccc(F)n1" : A (Fold activation>200%)

For this molecule ( "Cn1cncc1-c1nc2c(NC(=O)c3cnccn3)cccc2c(=O)n1C" ), measured % Fold Act. (percent maximum fold activation) is B (Fold Activation<200%)

For "Cn1c(-c2cccc(C(F)(F)F)c2)nc2c(C(=O)Nc3nc(CN4CCOCC4)cs3)cccc2c1=O" the molecule record lists % Fold Act. (percent maximum fold activation) as A (Fold activation>200%)

In plain terms, "Cn1c(-c2cccc(C(F)F)c2)nc2c(NC(=O)c3cnccn3)cccc2c1=O" has a documented % Fold Act. (percent maximum fold activation) of A (Fold activation>200%)

The reported % Fold Act. (percent maximum fold activation) of the molecule "CCCn1c(-c2cccc(C(F)(F)F)c2)nc2c(C(=O)Nc3ccccn3)cccc2c1=O" was B (Fold Activation<200%)

GET /value?item= "Cn1c(-c2cccc(C(F)F)c2)nc2c(C(=O)Nc3ccccn3)cccc2c1=O" &field=% Fold Act. (percent maximum fold activation) returns B (Fold Activation<200%)

====

- MEASURED_TARGET: SIRT1 (Homo sapiens, UniProt Q96EB6)
- ASSAY_SUMMARY: Mass spectrometry based assay to identify modulators of SIRT1 activity (deacetylation of p53-based acetylated peptide)
- Format: biochemical
- CONDITION_NOTES: 10 nM SIRT1, 0.5 μM peptide substrate, 120 μM βNAD+, 25 minutes at 25° C.
PROPERTY_NAME: % Fold Act. (percent maximum fold activation)

Consider the following illustrative entries.
MOLECULE: Cn1c(-c2ccccc2C(F)F)nc2c(C(=O)Nc3ccccn3)cccc2c1=O
REPORTED_VALUE: A (Fold activation>200%)
--
MOLECULE: O=C(Nc1cccc2c(=O)cc(-c3cccc(C(F)(F)F)c3)[nH]c12)c1cncs1
REPORTED_VALUE: A (Fold activation>200%)
--
MOLECULE: Cn1c(-c2cccc(C(F)(F)F)c2)nc2c(C(=O)Nc3ccnc(CN4CCCC4)n3)cccc2c1=O
REPORTED_VALUE: A (Fold activation>200%)
--
MOLECULE: Cn1c(-c2cccc(C(F)(F)F)c2)nc2c(NC(=O)c3cccc(CN4CCCC4)c3)cccc2c1=O
REPORTED_VALUE: A (Fold activation>200%)
--
MOLECULE: COc1ccc(NC(=O)c2cccc3c(=O)n(C)c(-c4cccc(C(F)(F)F)c4)nc23)cc1OC
REPORTED_VALUE: A (Fold activation>200%)
--
MOLECULE: Cn1c(-c2cccc(C(F)(F)F)c2)nc2c(C(=O)Nc3cccc(CN4CC[C@@H](F)C4)n3)cccc2c1=O
REPORTED_VALUE: A (Fold activation>200%)
--
MOLECULE: Cn1c(-c2cccc(OC(F)F)c2)nc2c(C(=O)Nc3ccccn3)cccc2c1=O
REPORTED_VALUE: A (Fold activation>200%)
--
MOLECULE: Cn1c(-c2cccc(C(F)(F)F)c2)nc2c(NC(=O)c3ccncc3)cccc2c1=O
REPORTED_VALUE: B (Fold Activation<200%)

Could you now consider this next molecule?
Record "Cn1c(-c2cccc(C(F)(F)F)c2)nc2c(NC(=O)c3ccncn3)cccc2c1=O" , field % Fold Act. (percent maximum fold activation): A (Fold activation>200%)

====

- MEASURED_TARGET: SIRT1 (Homo sapiens, UniProt Q96EB6)
- ASSAY_SUMMARY: Mass spectrometry based assay to identify modulators of SIRT1 activity (deacetylation of p53-based acetylated peptide)
- Assay type: biochemical
- CONDITION_NOTES: 10 nM SIRT1, 0.5 μM peptide substrate, 120 μM βNAD+, 25 minutes at 25° C.
PROPERTY_NAME: % Fold Act. (percent maximum fold activation)

Guide cases for % Fold Act. (percent maximum fold activation), answers given:
COMPOUND: Cn1c(-c2cccc(C(F)(F)F)c2)nc2c(C(=O)Nc3cccc(CN4CCOCC4)c3)cccc2c1=O [Compound 302]
REPORTED_VALUE: A (Fold activation>200%)
--
COMPOUND: Cn1c(-c2ccccn2)nc2c(NC(=O)c3cnccn3)cccc2c1=O [Compound 277]
REPORTED_VALUE: B (Fold Activation<200%)
--
COMPOUND: Cn1c(-c2ccccc2OC(F)(F)F)nc2c(C(=O)Nc3ccccn3)cccc2c1=O [Compound 213]
REPORTED_VALUE: A (Fold activation>200%)
--
COMPOUND: Cn1c(-c2cccc(C(F)(F)F)c2)nc2c(C(=O)Nc3ccc(CN4CCOCC4)nc3)cccc2c1=O [Compound 301]
REPORTED_VALUE: A (Fold activation>200%)
--
COMPOUND: Cc1cc(C(=O)Nc2cccc3c(=O)cc(-c4cccc(C(F)(F)F)c4)[nH]c23)n(C)n1 [Compound 410]
REPORTED_VALUE: A (Fold activation>200%)
--
COMPOUND: O=C(Nc1ccccn1)c1cccc2c(=O)[nH]c(-c3cccc(C(F)(F)F)c3)nc12 [Compound 218]
REPORTED_VALUE: A (Fold activation>200%)
--
COMPOUND: Cn1c(-c2cccc(C(F)(F)F)c2)nc2c(NC(=O)c3cccc(CN4CCOCC4)c3)cccc2c1=O [Compound 338]
REPORTED_VALUE: A (Fold activation>200%)
--
COMPOUND: O=C(NC1CCOCC1)c1cccc2c(=O)cc(-c3cccc(C(F)(F)F)c3)[nH]c12 [Compound 412]
REPORTED_VALUE: A (Fold activation>200%)
--
COMPOUND: Cn1c(-c2cccc(C(F)(F)F)c2)nc2c(C(=O)Nc3cccc(OC[C@@H](O)CO)n3)cccc2c1=O [Compound 356]
REPORTED_VALUE: A (Fold activation>200%)
--
COMPOUND: Cn1c(-c2cccc(C(F)(F)F)c2)nc2c(NC(=O)c3ncccn3)cccc2c1=O [Compound 249]
REPORTED_VALUE: A (Fold activation>200%)

Form: compound = O=C(Nc1nccs1)c1cccc2c(=O)cc(-c3ccccc3Cl)[nH]c12 [Compound 426] ; % Fold Act. (percent maximum fold activation) = A (Fold activation>200%)

Query O=C(Nc1cnccn1)c1cccc2c(=O)cc(-c3cccc(OC(F)(F)F)c3)[nH]c12 [Compound 442] yields % Fold Act. (percent maximum fold activation) of A (Fold activation>200%)

Cn1c(C2CCCC2)nc2c(C(=O)Nc3ccccn3)cccc2c1=O [Compound 214] yielded % Fold Act. (percent maximum fold activation) of B (Fold Activation<200%)

For reference, reported % Fold Act. (percent maximum fold activation) for O=C(Nc1cccnc1)c1cccc2c(=O)cc(-c3ccccc3OC(F)F)[nH]c12 [Compound 440] stands at A (Fold activation>200%)

According to the records, this compound Cn1c(-c2cccc(CN3CCCC3)c2)nc2c(C(=O)Nc3ccccn3)cccc2c1=O [Compound 276] displays % Fold Act. (percent maximum fold activation) of B (Fold Activation<200%)

// field: % Fold Act. (percent maximum fold activation); key: O=C(Nc1cccnc1)c1cccc2c(=O)cc(-c3ccccc3OC(F)(F)F)[nH]c12 [Compound 439] ; value = A (Fold activation>200%)
